Test system: LNCaP xenografts
Experiment: Ex vivo biodistribution and blocking studies in mice bearing LNCaP xenografts
Conditions: 1 h blocked (coinjection of DCFPyL 0.5 mg)
Binary label based on heart uptake with cut-off 0.09 %ID/g: below gives True, not below gives False.

(Q) heart uptake under 0.09 %ID/g? Item: O=C(O)CC[C@H](NC(=O)N[C@@H](CCCCNC(=O)[C@H](Cc1ccc2ccccc2c1)NC(=O)[C@H]1CC[C@H](CNC(=O)Cn2cc(C[n+]3ccc([B-](F)(F)F)cc3)nn2)CC1)C(=O)O)C(=O)O [^18F-6]
(A) False

(Q) In the record for C[N+](C)(Cc1ccc(C(=O)NCCCC[C@H](NC(=O)N[C@@H](CCC(=O)O)C(=O)O)C(=O)O)cc1)C[B-](F)(F)F [^18F-1] , is heart uptake less than 0.09 %ID/g?
(A) False

(Q) hey, is heart uptake for C[N+](C)(Cc1cn(Cc2ccc(C(=O)NCCCC[C@H](NC(=O)N[C@@H](CCC(=O)O)C(=O)O)C(=O)O)cn2)nn1)C[B-](F)(F)F [^18F-3] lower than 0.09 %ID/g or not?
(A) False

(Q) Given C[N+](C)(Cc1cn(CC(=O)NCCOCCOCCC(=O)N[C@@H](Cc2ccc3ccccc3c2)C(=O)NCCCC[C@H](NC(=O)N[C@@H](CCC(=O)O)C(=O)O)C(=O)O)nn1)C[B-](F)(F)F [^18F-7] , is recorded heart uptake strictly lower than 0.09 %ID/g?
(A) True

(Q) Please check: heart uptake for C[N+](C)(Cc1cn(CC(=O)N[C@@H](CCC(=O)O)C(=O)NCCCC[C@H](NC(=O)[C@H](CCC(=O)O)NC(=O)Cn2cc(C[N+](C)(C)C[B-](F)(F)F)nn2)C(=O)NC[C@H]2CC[C@H](C(=O)N[C@@H](Cc3ccc4ccccc4c3)C(=O)NCCCC[C@H](NC(=O)N[C@@H](CCC(=O)O)C(=O)O)C(=O)O)CC2)nn1)C[B-](F)(F)F [^18F-8] , strictly under 0.09 %ID/g or not?
(A) False

(Q) Answer whether the compound C[N+](C)(Cc1cn(CC(=O)NC[C@H]2CC[C@H](C(=O)N[C@@H](Cc3ccc4ccccc4c3)C(=O)NCCCC[C@H](NC(=O)N[C@@H](CCC(=O)O)C(=O)O)C(=O)O)CC2)nn1)C[B-](F)(F)F [^18F-5] has heart uptake strictly less than 0.09 %ID/g
(A) False

* * *

Test system: LNCaP xenografts
Assay: Ex vivo biodistribution and blocking studies in mice bearing LNCaP xenografts
Conditions: 1 h after injection, unblocked
quantity: T/B (tumor-to-blood ratio)
Give the figure only, with no unit attached.

(Q) Tell me T/B (tumor-to-blood ratio) reported for C[N+](C)(Cc1cn(CC(=O)NCCOCCOCCC(=O)N[C@@H](Cc2ccc3ccccc3c2)C(=O)NCCCC[C@H](NC(=O)N[C@@H](CCC(=O)O)C(=O)O)C(=O)O)nn1)C[B-](F)(F)F [^18F-7]
(A) 54.57

(Q) Give T/B (tumor-to-blood ratio) for O=C(O)CC[C@H](NC(=O)N[C@@H](CCCCNC(=O)[C@H](Cc1ccc2ccccc2c1)NC(=O)[C@H]1CC[C@H](CNC(=O)Cn2cc(C[n+]3ccc([B-](F)(F)F)cc3)nn2)CC1)C(=O)O)C(=O)O [^18F-6]
(A) 19.80

(Q) Specify T/B (tumor-to-blood ratio) for C[N+](C)(Cc1cn(Cc2ccc(C(=O)NCCCC[C@H](NC(=O)N[C@@H](CCC(=O)O)C(=O)O)C(=O)O)cn2)nn1)C[B-](F)(F)F [^18F-3] and stop.
(A) 9.68

(Q) Determine its reported T/B (tumor-to-blood ratio): C[N+](C)(Cc1cn(CC(=O)NC[C@H]2CC[C@H](C(=O)N[C@@H](Cc3ccc4ccccc4c3)C(=O)NCCCC[C@H](NC(=O)N[C@@H](CCC(=O)O)C(=O)O)C(=O)O)CC2)nn1)C[B-](F)(F)F [^18F-5]
(A) 17.12

(Q) Please look at this compound and report its T/B (tumor-to-blood ratio): O=C(O)CC[C@H](NC(=O)N[C@@H](CCCCNC(=O)c1ccc(Cn2cc(C[n+]3ccc([B-](F)(F)F)cc3)nn2)nc1)C(=O)O)C(=O)O [^18F-4]
(A) 8.70

(Q) For C[N+](C)(Cc1cn(CC(=O)N[C@@H](CCC(=O)O)C(=O)NCCCC[C@H](NC(=O)[C@H](CCC(=O)O)NC(=O)Cn2cc(C[N+](C)(C)C[B-](F)(F)F)nn2)C(=O)NC[C@H]2CC[C@H](C(=O)N[C@@H](Cc3ccc4ccccc4c3)C(=O)NCCCC[C@H](NC(=O)N[C@@H](CCC(=O)O)C(=O)O)C(=O)O)CC2)nn1)C[B-](F)(F)F [^18F-8] , write its T/B (tumor-to-blood ratio).
(A) 30.95

(Q) Determine its reported T/B (tumor-to-blood ratio): C[N+](C)(Cc1ccc(C(=O)NCCCC[C@H](NC(=O)N[C@@H](CCC(=O)O)C(=O)O)C(=O)O)cc1)C[B-](F)(F)F [^18F-1]
(A) 10.82

(Q) Output measured T/B (tumor-to-blood ratio) for this item: C[N+](C)(Cc1cn(Cc2ccc(C(=O)NCCCC[C@H](NC(=O)N[C@@H](CCC(=O)O)C(=O)O)C(=O)O)cc2)nn1)C[B-](F)(F)F [^18F-2]
(A) 15.95

* * *

Test system: LNCaP xenografts
Test: Ex vivo biodistribution and blocking studies in mice bearing LNCaP xenografts
Conditions: 1 h after injection, unblocked
quantity: blood uptake (%ID/g)
Give just the numeric value; %ID/g need not be written.

(Q) Please tell me the measured blood uptake for C[N+](C)(Cc1cn(Cc2ccc(C(=O)NCCCC[C@H](NC(=O)N[C@@H](CCC(=O)O)C(=O)O)C(=O)O)cc2)nn1)C[B-](F)(F)F [^18F-2] ; system: LNCaP xenografts.
(A) 0.52

(Q) With LNCaP xenografts as the test system, provide measured blood uptake for this molecule: O=C(O)CCC(NC(=O)NC(CCCCNC(=O)c1ccc([18F])nc1)C(=O)O)C(=O)O (centres unmarked) [^18F-DCFPyL, reference compound]
(A) 0.60

(Q) Give the observed blood uptake of C[N+](C)(Cc1cn(CC(=O)N[C@@H](CCC(=O)O)C(=O)NCCCC[C@H](NC(=O)[C@H](CCC(=O)O)NC(=O)Cn2cc(C[N+](C)(C)C[B-](F)(F)F)nn2)C(=O)NC[C@H]2CC[C@H](C(=O)N[C@@H](Cc3ccc4ccccc4c3)C(=O)NCCCC[C@H](NC(=O)N[C@@H](CCC(=O)O)C(=O)O)C(=O)O)CC2)nn1)C[B-](F)(F)F [^18F-8] for LNCaP xenografts.
(A) 0.56

(Q) Report measured blood uptake on LNCaP xenografts; entry: O=C(O)CC[C@H](NC(=O)N[C@@H](CCCCNC(=O)[C@H](Cc1ccc2ccccc2c1)NC(=O)[C@H]1CC[C@H](CNC(=O)Cn2cc(C[n+]3ccc([B-](F)(F)F)cc3)nn2)CC1)C(=O)O)C(=O)O [^18F-6]
(A) 0.68

(Q) Specify the recorded blood uptake for C[N+](C)(Cc1ccc(C(=O)NCCCC[C@H](NC(=O)N[C@@H](CCC(=O)O)C(=O)O)C(=O)O)cc1)C[B-](F)(F)F [^18F-1] , system: LNCaP xenografts.
(A) 0.57

* * *

System: LNCaP xenografts
Experiment: Ex vivo biodistribution and blocking studies in mice bearing LNCaP xenografts
Details: 1 h blocked (coinjection of DCFPyL 0.5 mg)
quantity: lung uptake (%ID/g)
The figure you give is taken to be in %ID/g; do not add the unit.

(Q) Please supply the value of reported lung uptake for the item O=C(O)CC[C@H](NC(=O)N[C@@H](CCCCNC(=O)c1ccc(Cn2cc(C[n+]3ccc([B-](F)(F)F)cc3)nn2)nc1)C(=O)O)C(=O)O [^18F-4]
(A) 0.19

(Q) Please give measured lung uptake of the following entry: C[N+](C)(Cc1cn(Cc2ccc(C(=O)NCCCC[C@H](NC(=O)N[C@@H](CCC(=O)O)C(=O)O)C(=O)O)cn2)nn1)C[B-](F)(F)F [^18F-3]
(A) 0.30

(Q) Give recorded lung uptake. C[N+](C)(Cc1cn(Cc2ccc(C(=O)NCCCC[C@H](NC(=O)N[C@@H](CCC(=O)O)C(=O)O)C(=O)O)cc2)nn1)C[B-](F)(F)F [^18F-2]
(A) 0.22

(Q) Please look at this compound and report its lung uptake: C[N+](C)(Cc1ccc(C(=O)NCCCC[C@H](NC(=O)N[C@@H](CCC(=O)O)C(=O)O)C(=O)O)cc1)C[B-](F)(F)F [^18F-1]
(A) 0.25

(Q) Please look at this compound and report its lung uptake: C[N+](C)(Cc1cn(CC(=O)N[C@@H](CCC(=O)O)C(=O)NCCCC[C@H](NC(=O)[C@H](CCC(=O)O)NC(=O)Cn2cc(C[N+](C)(C)C[B-](F)(F)F)nn2)C(=O)NC[C@H]2CC[C@H](C(=O)N[C@@H](Cc3ccc4ccccc4c3)C(=O)NCCCC[C@H](NC(=O)N[C@@H](CCC(=O)O)C(=O)O)C(=O)O)CC2)nn1)C[B-](F)(F)F [^18F-8]
(A) 0.33

(Q) Consider the compound C[N+](C)(Cc1cn(CC(=O)NC[C@H]2CC[C@H](C(=O)N[C@@H](Cc3ccc4ccccc4c3)C(=O)NCCCC[C@H](NC(=O)N[C@@H](CCC(=O)O)C(=O)O)C(=O)O)CC2)nn1)C[B-](F)(F)F [^18F-5] . State its measured lung uptake.
(A) 0.39

(Q) Look up and state reported lung uptake for O=C(O)CC[C@H](NC(=O)N[C@@H](CCCCNC(=O)[C@H](Cc1ccc2ccccc2c1)NC(=O)[C@H]1CC[C@H](CNC(=O)Cn2cc(C[n+]3ccc([B-](F)(F)F)cc3)nn2)CC1)C(=O)O)C(=O)O [^18F-6]
(A) 0.43
